Entry source: ChEMBL document CHEMBL4680084

TESTED SYSTEM: Integrin alpha-IIb/beta-3 (Homo sapiens, UniProt P05106+P08514)
Sequence (P05106 27-788 limits assumed): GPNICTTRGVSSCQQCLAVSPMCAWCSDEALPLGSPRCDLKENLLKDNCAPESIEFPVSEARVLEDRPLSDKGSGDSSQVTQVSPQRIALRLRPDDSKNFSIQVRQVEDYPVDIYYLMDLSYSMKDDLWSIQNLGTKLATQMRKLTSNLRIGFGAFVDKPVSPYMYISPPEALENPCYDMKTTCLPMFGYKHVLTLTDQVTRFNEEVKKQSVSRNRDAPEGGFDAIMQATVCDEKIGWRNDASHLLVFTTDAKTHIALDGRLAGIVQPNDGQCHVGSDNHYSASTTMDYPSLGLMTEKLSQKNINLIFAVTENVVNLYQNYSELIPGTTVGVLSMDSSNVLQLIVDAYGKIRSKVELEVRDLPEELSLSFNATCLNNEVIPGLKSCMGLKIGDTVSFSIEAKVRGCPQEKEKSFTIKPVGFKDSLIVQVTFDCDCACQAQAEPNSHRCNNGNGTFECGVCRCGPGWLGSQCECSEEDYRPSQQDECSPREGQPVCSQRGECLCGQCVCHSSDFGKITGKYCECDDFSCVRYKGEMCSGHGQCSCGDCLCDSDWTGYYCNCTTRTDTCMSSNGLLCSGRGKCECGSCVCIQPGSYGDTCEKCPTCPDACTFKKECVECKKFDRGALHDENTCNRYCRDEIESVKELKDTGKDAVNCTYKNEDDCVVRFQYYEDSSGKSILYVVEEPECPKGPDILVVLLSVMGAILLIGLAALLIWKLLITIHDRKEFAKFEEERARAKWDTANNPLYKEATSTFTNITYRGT
Sequence (P08514 32-887 limits assumed): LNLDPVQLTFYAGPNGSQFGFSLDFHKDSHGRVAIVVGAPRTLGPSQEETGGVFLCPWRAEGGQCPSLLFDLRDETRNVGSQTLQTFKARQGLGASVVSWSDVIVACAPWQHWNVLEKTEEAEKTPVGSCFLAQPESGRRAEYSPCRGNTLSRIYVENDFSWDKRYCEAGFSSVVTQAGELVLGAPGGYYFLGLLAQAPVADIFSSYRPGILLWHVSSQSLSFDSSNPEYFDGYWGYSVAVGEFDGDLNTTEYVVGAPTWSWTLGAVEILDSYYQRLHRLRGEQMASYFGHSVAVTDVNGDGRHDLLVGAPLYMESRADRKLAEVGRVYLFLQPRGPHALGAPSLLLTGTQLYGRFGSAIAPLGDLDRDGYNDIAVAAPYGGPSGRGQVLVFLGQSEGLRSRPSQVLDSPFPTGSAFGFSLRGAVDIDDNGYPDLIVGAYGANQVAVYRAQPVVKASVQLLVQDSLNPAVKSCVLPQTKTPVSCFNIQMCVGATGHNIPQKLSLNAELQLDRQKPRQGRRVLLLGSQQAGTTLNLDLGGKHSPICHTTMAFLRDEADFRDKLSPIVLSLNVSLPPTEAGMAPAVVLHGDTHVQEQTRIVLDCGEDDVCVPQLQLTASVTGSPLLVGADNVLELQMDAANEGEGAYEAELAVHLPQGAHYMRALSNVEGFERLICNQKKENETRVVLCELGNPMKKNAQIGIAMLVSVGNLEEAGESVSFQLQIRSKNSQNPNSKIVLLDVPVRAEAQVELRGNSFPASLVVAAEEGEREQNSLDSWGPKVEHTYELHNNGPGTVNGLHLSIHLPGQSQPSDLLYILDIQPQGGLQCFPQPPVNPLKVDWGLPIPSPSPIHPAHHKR
Sequence (P08514 891-1039 limits assumed): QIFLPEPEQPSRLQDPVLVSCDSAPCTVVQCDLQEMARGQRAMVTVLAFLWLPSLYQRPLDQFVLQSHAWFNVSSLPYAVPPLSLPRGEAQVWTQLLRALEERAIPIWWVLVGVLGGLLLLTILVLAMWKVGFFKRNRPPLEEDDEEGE
PROTOCOL DETAILS: Agonist activity at alpha2bbeta3 in human HEL cells assessed as increase in cell adhesion to fibrinogen pre-incubated for 30 mins before fibrinogen and further incubated for 1 hr by nitrophenyl-N-acetyl-beta-D-glucosaminide substrate based chromogenic assay
MEASURE: EC50

Ask | If you can, please state the reported EC50 value of "H-GRGDTP-OH" .
Reply | > 5 µM

###

TESTED SYSTEM: Integrin alpha-L/beta-2 (LFA-1) (Homo sapiens, UniProt P05107+P20701)
Sequence (P20701 whole entry): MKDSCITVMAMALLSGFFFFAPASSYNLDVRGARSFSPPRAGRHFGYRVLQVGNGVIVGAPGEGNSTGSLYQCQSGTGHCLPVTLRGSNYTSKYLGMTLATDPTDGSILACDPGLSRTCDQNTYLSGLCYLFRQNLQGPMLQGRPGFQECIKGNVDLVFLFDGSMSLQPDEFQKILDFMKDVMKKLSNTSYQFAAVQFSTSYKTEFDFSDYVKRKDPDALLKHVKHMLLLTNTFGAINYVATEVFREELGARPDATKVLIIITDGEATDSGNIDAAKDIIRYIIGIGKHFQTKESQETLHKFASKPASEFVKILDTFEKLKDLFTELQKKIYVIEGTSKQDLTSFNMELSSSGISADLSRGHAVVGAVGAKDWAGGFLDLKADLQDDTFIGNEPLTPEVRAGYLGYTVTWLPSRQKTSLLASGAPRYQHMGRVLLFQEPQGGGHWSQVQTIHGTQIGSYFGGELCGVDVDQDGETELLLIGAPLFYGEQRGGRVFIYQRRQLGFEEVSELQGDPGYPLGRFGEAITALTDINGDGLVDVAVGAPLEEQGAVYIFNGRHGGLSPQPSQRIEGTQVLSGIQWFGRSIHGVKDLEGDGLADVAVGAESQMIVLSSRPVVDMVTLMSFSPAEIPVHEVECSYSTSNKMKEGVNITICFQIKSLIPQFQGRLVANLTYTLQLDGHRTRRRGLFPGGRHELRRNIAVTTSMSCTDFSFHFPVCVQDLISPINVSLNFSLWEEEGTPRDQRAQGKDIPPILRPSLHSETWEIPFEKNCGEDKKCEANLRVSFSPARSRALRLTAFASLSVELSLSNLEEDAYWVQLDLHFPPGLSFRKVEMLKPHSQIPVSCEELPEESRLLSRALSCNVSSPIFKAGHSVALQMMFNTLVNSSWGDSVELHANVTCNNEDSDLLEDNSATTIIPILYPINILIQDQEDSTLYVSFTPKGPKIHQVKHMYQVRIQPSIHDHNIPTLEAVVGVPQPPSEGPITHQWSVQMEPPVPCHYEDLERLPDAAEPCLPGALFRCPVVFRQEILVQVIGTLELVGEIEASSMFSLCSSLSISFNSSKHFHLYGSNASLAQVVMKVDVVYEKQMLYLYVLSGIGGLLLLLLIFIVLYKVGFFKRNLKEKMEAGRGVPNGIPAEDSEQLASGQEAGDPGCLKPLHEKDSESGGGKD
Sequence (P05107 whole entry): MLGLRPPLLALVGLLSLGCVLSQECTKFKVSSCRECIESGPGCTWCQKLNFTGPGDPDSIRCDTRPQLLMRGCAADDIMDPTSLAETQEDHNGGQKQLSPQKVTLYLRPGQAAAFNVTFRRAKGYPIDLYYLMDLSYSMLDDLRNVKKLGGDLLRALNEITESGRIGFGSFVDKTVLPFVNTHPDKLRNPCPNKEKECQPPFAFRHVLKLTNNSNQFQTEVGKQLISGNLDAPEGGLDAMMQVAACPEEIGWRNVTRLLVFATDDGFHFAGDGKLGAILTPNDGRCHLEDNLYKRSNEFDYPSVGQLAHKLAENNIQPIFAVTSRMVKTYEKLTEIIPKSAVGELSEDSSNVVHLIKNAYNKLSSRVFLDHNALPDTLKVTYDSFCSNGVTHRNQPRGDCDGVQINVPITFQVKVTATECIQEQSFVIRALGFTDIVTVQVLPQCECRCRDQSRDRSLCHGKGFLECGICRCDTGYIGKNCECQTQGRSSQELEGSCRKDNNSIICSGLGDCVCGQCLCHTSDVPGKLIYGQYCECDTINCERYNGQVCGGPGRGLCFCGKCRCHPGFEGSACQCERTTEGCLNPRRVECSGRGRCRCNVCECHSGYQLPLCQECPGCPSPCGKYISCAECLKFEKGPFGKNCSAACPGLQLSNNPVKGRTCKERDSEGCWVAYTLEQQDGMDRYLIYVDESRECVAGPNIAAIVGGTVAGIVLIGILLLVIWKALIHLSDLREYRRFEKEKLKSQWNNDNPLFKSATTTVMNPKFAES
PROTOCOL DETAILS: Antagonist activity at alphaLbeta2 in human Jurkat E6.1 cells assessed as reduction in cell adhesion to ICAM1 pre-incubated for 30 mins before ICAM1 and further incubated for 30 mins by […]
Type: cell-based
Numbered stars: 1 amine (or outer) side, 2 acyl side, 3 side chain; on linkers, the order of the positions; unused ones are H or OH. Square brackets hold non-standard residues; d marks the D form. Peptide text beside a SMILES is read from it. * marks the point of attachment. X1 = O=C(Cc1ccc(N[*:1])cc1)[*:2]; NH(2-Me-phenyl) = Cc1ccccc1N*; CO = O=C([*:1])[*:2]
Listing of recorded IC50 by entry.

Please review the following examples before continuing.
[
  {
    "COMPOUND": "Cc1ccccc1NC(=O)N1C(=O)CC1CC(=O)NCCC(=O)O (stereo unspecified)",
    "IC50": "> 5 µM"
  },
  {
    "COMPOUND": "NCc1ccc(NC(=O)N2C(=O)CC2CC(=O)NCCC(=O)O)cc1.O=C(O)C(F)(F)F (stereo unspecified)",
    "IC50": "> 5 µM"
  },
  {
    "COMPOUND": "Cc1ccccc1NC(=O)Nc1ccc(CC(=O)N[C@@H](CC(C)C)C(=O)N[C@@H](CC(=O)O)C(=O)N[C@H](C(=O)N2CCC[C@H]2C(=O)O)C(C)C)cc1 ({NH(2-Me-phenyl)-CO}-[X1]LDVP-OH)",
    "IC50": "0.00084 µM"
  }
]

Ask | If you can, please state the reported IC50 value of "NCc1ccc(NC(=O)N2C(=O)C[C@H]2C(=O)O)cc1.O=C(O)C(F)(F)F" .
Reply | > 5 µM

Ask | If you can, please state the reported IC50 value of Nc1ccc(CNC(=O)N2C(=O)CC2CC(=O)NCCC(=O)O)cc1.O=C(O)C(F)(F)F (stereo unspecified) .
Reply | > 5 µM

Ask | If you can, please state the reported IC50 value of NCc1ccc(NC(=O)N2C(=O)CC2CC(=O)O)cc1.O=C(O)C(F)(F)F (stereo unspecified) .
Reply | 2.41 µM

Ask | If you can, please state the reported IC50 value of "Cc1ccccc1NC(=O)N1C(=O)C[C@H]1C(=O)NCCC(=O)O" .
Reply | > 5 µM

Ask | If you can, please state the reported IC50 value of Cc1ccccc1NC(=O)N1C(=O)CC1CC(=O)NCC(=O)O (stereo unspecified) .
Reply | > 5 µM

Ask | If you can, please state the reported IC50 value of O=C(O)CC1CC(=O)N1 (stereo unspecified) .
Reply | 1.63 µM

Ask | If you can, please state the reported IC50 value of Cc1ccccc1NC(=O)N1C(=O)CC1CC(=O)O (stereo unspecified) .
Reply | > 5 µM

Ask | If you can, please state the reported IC50 value of Nc1ccc(CNC(=O)N2C(=O)CC2CC(=O)O)cc1.O=C(O)C(F)(F)F (stereo unspecified) .
Reply | 0.00039 µM
